- Tested on: Fibroblast
- assay_explanation: Incucyte cell viability with human fibroblast; note: filed as whole numbers so only -1 and 0 and 1 occur
- Format: toxicity, cell-based
- conditions_used: 24 h, 10 µM, compound concentration 10 uM, replicate number 1, timepoint 24 hours
assay_readout: Growth Rate
Give bare numbers.

Worked cases, answers included:
COc1cc2c(cc1NS(=O)(=O)c1ccc(Br)cc1C)n(C)c(=O)n2C    1
CN1CCN(Cc2cc(NC(=O)c3ccc4c(c3)CN(c3ccccc3)CC4)cc(C(F)(F)F)c2)CC1    0
COc1cc(-c2cn([C@H]3CCc4ccccc4N(CC(F)(F)F)C3=O)nn2)ccc1-n1ccc(C)n1    0

Next up:
What value of Growth Rate has been recorded for this entry: CC(C)(O)c1ccccc1CC[C@@H](SCC1(CC(=O)[O-])CC1)c1cccc(/C=C/c2ccc3ccc(Cl)cc3n2)c1.[Na+] [MONTELUKAST SODIUM]
1
